# Protocol Text: chemical genetic growth profiling, strain panel (AID 1159580);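 also: tested at 20 µM; growth read once vehicle control cultures reached saturation at 30 °C; 1 = growth at the plate median or of vehicle wells; lower values mean less growth of the strain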
# Conditions: S. cerevisiae deletion strains, growth OD, locus YNL183C, strain NPR1, active compounds read low
The campaign covered roughly 5,500 compounds. About 2,000 (36%) were called active. Not shown: some 18% with an inconclusive outcome. The list shows a part of the results.
Experimental Readout: normalized growth
// no unit, no text: just the number

## Input What value of normalized growth has been recorded for this entry: CC(=O)OCC(=O)[C@@]1(O)CCC2C3CCC4=CC(=O)C=C[C@]4(C)[C@@]3(Cl)[C@@H](Cl)C[C@@]21C (stereo not given in full)
## Output 0.916

## Input What value of normalized growth has been recorded for this entry: `C=CCSC[C@@H](N)C(=O)O`
## Output 0.914

## Input What value of normalized growth has been recorded for this entry: `Nc1nc(/C(=C/CC(=O)O)C(=O)N[C@@H]2C(=O)N3C(C(=O)O)=CCS[C@H]23)cs1`
## Output 0.961

## Input What value of normalized growth has been recorded for this entry: `O=C(O)CN(CCN(CC(=O)O)CC(=O)O)CC(=O)O`
## Output 0.973

## Input What value of normalized growth has been recorded for this entry: `ONC(=Nc1ccccc1Cl)c1ccccc1Cl`
## Output 0.86
